TARGET_OR_TEST_SYSTEM: β2-chimaerin (Homo sapiens, UniProt P52757)
Sequence (P52757 whole entry): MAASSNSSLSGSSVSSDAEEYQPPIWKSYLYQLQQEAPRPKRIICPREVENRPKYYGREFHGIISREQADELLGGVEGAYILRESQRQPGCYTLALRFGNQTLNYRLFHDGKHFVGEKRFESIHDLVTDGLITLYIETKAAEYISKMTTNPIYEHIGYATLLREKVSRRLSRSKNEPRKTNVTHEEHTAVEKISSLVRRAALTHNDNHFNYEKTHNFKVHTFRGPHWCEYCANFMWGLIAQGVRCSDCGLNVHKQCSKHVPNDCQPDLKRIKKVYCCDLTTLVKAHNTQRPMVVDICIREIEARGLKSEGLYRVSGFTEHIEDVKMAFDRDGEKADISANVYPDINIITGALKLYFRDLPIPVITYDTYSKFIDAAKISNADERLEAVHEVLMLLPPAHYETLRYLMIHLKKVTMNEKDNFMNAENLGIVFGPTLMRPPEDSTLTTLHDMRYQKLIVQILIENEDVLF

- COMPOUND: "CCCCCCCCCCCCCC(=O)O[C@@H]1[C@@H](C)[C@@]2(O)[C@@H](C=C(CO)C[C@]3(O)C(=O)C(C)=C[C@@H]23)[C@@H]2C(C)(C)[C@]12OC(C)=O [Phorbol 12-myristate 13-acetate]"
  TARGET_OR_TEST_SYSTEM: "β2-chimaerin (Homo sapiens, UniProt P52757)"
  EC50: "1200 nM"
